These entries and their values trace back to paper PMC12616683.

experiment: FBMN analysis of short peptides in small intestine contents and serum after oral DHG; settings: small intestine contents, 30 min after oral DHG, C57 mice; FBMN feature intensity, peptides smaller than 690 Da
Peptide text beside a SMILES is read from it.
Attribute: Peptide signal (feature intensity) in the small intestine, 30 min
Format: numeric value only, no unit, no commentary.

Field: example entries. Status: answers known.
Compound	Reported measurement
CC(C)[C@H](N)C(=O)N[C@@H](Cc1ccccc1)C(=O)O [Val-Phe] (H-Val-Phe-OH)	1.38E+06
N[C@@H](Cc1c[nH]c2ccccc12)C(=O)N[C@@H](CCC(=O)O)C(=O)O [Trp-Glu] (H-Trp-Glu-OH)	0.00E+00
CC(C)CC1NC(=O)C(Cc2ccccc2)NC1=O (centres unmarked)	1.01E+05
NCC(=O)N[C@@H](Cc1ccc(O)cc1)C(=O)O [Gly-Tyr] (H-Gly-Tyr-OH)	0.00E+00
CC(C)[C@H](NC(=O)[C@@H](N)CO)C(=O)O [Ser-Val] (H-Ser-Val-OH)	0.00E+00

Retrieve Peptide signal (feature intensity) in the small intestine, 30 min measured for CSCC[C@H](NC(=O)[C@@H](N)C(C)C)C(=O)O [Val-Met] (H-Val-Met-OH) and print it.
3.30E+06

Give the reported Peptide signal (feature intensity) in the small intestine, 30 min for this compound. CC[C@H](C)[C@H](NC(=O)[C@@H](N)CC(N)=O)C(=O)O [Asn-Ile] (H-Asn-Ile-OH)
1.55E+06

Determine from records and report Peptide signal (feature intensity) in the small intestine, 30 min for CSCC[C@H](NC(=O)[C@@H](N)Cc1c[nH]c2ccccc12)C(=O)O [Trp-Met] (H-Trp-Met-OH)
0.00E+00

###

Measured AUC0–24h of individual entries
assay: Serum pharmacokinetics of CDPs after oral administration of DHG (targeted LC-MS, noncompartmental analysis); settings: serum, mice, oral DHG 1000 mg/kg
Write down the numeric answer in ng·h/mL and omit the unit.

Sample records with AUC0–24h:
Molecule	AUC0–24h (ng·h/mL)
CC(C)[C@@H]1NC(=O)[C@@H]2CCCN2C1=O [cyclo(Pro-Val)]	201.4294
CC(C)CC1NC(=O)C2CC(O)CN2C1=O (centres unmarked) [cyclo(Hyp-Leu)]	301.1580
CC(C)CC1NC(=O)C2CCCN2C1=O (centres unmarked) [cyclo(Pro-Leu)]	176.6962
O=C1N[C@@H](Cc2ccccc2)C(=O)N2C[C@@H](O)C[C@@H]12 [cyclo(Phe-Hyp)]	263.2271

Here is another molecule to look at.
Note AUC0–24h for the molecule shown: O=C1NCC(=O)N2CCC[C@@H]12 [cyclo(Gly-Pro)]
15547.0170

###

test: FBMN analysis of short peptides in small intestine contents and serum after oral DHG; settings: small intestine contents, 30 min after oral DHG, C57 mice; FBMN feature intensity, peptides smaller than 690 Da
Peptide text beside a SMILES is read from it.
Readout label: Peptide signal (feature intensity) in the small intestine, 30 min
Write the number on its own, no unit after it.

As a guide, the following entries are already answered.
Molecule	Reported measurement
CC(C)C[C@H](NC(=O)CNC(=O)[C@@H](N)CC(C)C)C(=O)O [Leu-Gly-Leu] (H-Leu-Gly-Leu-OH)	2.40E+06
Nc1nc2c(ncn2[C@@H]2O[C@H](CO)[C@@H](O)[C@H]2O)c(=O)[nH]1	8.57E+06
NC(Cc1ccccc1)C(=O)N1CCCC1C(=O)O (stereo not drawn) [Phe-Pro] (H-Phe-Pro-OH; configuration not given here)	1.25E+06

Lab note: next molecule to report on.
Given N[C@@H](CCC(=O)O)C(=O)N[C@@H](Cc1ccccc1)C(=O)O , respond with its Peptide signal (feature intensity) in the small intestine, 30 min.
0.00E+00
